System: DAF-12 nuclear receptor (Haemonchus contortus)
assay.explanation: hcDAF-12 driven luciferase reporter activation – cell-based, luminescence, HEK293, lit1-tk-luc reporter, primary screen (AID 652067)
applied.conditions: HEK293 hcDAF-12 lit1-tk-luc reporter, at 6.8 µM, 0% DMSO, 100% Δ7-dafachronic acid
Hit rate of the full screen: of about 370,000 compounds, about 5,400 (1.5%) were called active.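 The calls were made as follows: active = activation above the mean of all tested compounds plus 3 SD (cut at about 5.5% in these data); inactive = the rest.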 This excerpt belongs to a sample that is enriched for actives.
Return exactly one item of active, inactive

O=C(CSc1nnc(COc2ccccc2)n1Cc1ccco1)c1ccc2ccccc2c1    inactive
O=C(COC(=O)c1ccccn1)Nc1cccc2ccccc12    inactive
Cc1c(C(N)=O)sc2ncn(CCOc3ccccc3)c(=O)c12    inactive
CS(=O)(=O)N(CC(=O)Nc1ccc(F)cc1F)c1cccc([N+](=O)[O-])c1    inactive
CC(=O)Nc1ccc(NC(=O)COc2ccccc2C(=O)Nc2cccc(Cl)c2Cl)cc1    active

Enquiry: What was the test verdict on CC(=O)C1(C(=O)Nc2nccs2)CC(c2ccccc2C(F)(F)F)=NO1 (stereo not drawn) ?
Return: inactive

Enquiry: Same read-out for Cn1c(NCc2cccnc2)nc2cc(-c3ccc(F)cc3)sc2c1=O ?
Return: inactive

Enquiry: Cool, now COC(=O)C1=C(C)N(Cc2cccc(C(F)(F)F)c2)C(=NCc2cccc(C(F)(F)F)c2)NC1c1ccccc1C(F)(F)F (stereo not drawn)
Return: inactive

Enquiry: Next entry: Cc1cccc(NC(=O)Nc2ccc3c(c2)OCO3)n1
Return: active

Enquiry: Try CCSc1ccccc1C(=O)Nc1ccc2c(c1)OCO2 next.
Return: inactive

Enquiry: What do we get for Cc1ccc(N)cc1CN1CCN(c2ncc(Cc3ccccc3)cn2)CC1 ?
Return: inactive

Enquiry: Try the compound N[C@@H](Cc1ccccc1)C(=O)N1CCC[C@@H]1C(=O)N1CCC2CCN(S(=O)(=O)c3ccccc3)CC21 (stereo partly drawn)
Return: inactive

Enquiry: Input Cc1cccc2c1N(CCOc1ccccc1)C(=O)C2=O
Return: inactive

Enquiry: Then CC(Oc1ccccc1)C(=O)NN1Cc2ccccc2C1=N (stereo not drawn) ?
Return: inactive

Enquiry: Also need CNS(=O)(=O)c1ccc(NC(=O)Nc2ccc3c(c2)OCO3)cc1 , thanks.
Return: inactive

Enquiry: Ok, now NNC(=O)C1CCCn2c1nc1sc3c(c1c2=O)CCCC3 (stereo not drawn)
Return: active

Enquiry: Now consider O=c1c2c(nc3n1CCCCC3)sc1c(O)cccc12 and answer again.
Return: active

Enquiry: Then what about the compound O=C(COc1ccccc1Cl)Nc1ccccc1C(=O)NC1CC1 ?
Return: inactive

Enquiry: Next entry: Cc1cc(NC(=O)COc2ccccc2C#N)no1
Return: inactive
